Quick reference: selectivity ratio of the listed items.
protocol_description: Selectivity index, ratio of IC50 for L02 cell cytotoxicity over MIC for vancomycin-susceptible methicillin-susceptible Staphylococcus aureus Newman
Format: toxicity
conditions: human, L02 cells
measured_metric: selectivity ratio

compound_structure_string: O=C(c1cc(C(F)(F)F)n[nH]1)c1cc(Cl)c(Cl)cc1O
experimental_value: > 13
//
compound_structure_string: N#Cc1cc(C(=O)c2cc(Cl)c(Cl)cc2O)[nH]n1
experimental_value: > 12

###

Quick reference: MIC of the listed items.
Tested on: Enterococcus faecalis
protocol_description: Antibacterial activity against vancomycin-resistant, teicoplanin sensitive Enterococcus faecalis HS08257 incubated for 24 hrs by broth microdilution method
Type: functional

molecule: N#Cc1cc(C(=O)c2cc(Cl)c(Cl)cc2O)[nH]n1
MIC: 0.25 µg/mL
--
molecule: O=C(c1cc(C(F)(F)F)n[nH]1)c1cc(Cl)c(Cl)cc1O
MIC: < 0.125 µg/mL
--
molecule: O=C(c1cc(C(F)(F)F)n[nH]1)c1cc(Cl)c(F)cc1O
MIC: 0.5 µg/mL
--
molecule: CN[C@H](CC(C)C)C(=O)N[C@H]1C(=O)N[C@@H](CC(N)=O)C(=O)N[C@H]2C(=O)N[C@H]3C(=O)N[C@H](C(=O)N[C@H](C(=O)O)c4cc(O)cc(O)c4-c4cc3ccc4O)[C@H](O)c3ccc(c(Cl)c3)Oc3cc2cc(c3O[C@@H]2O[C@H](CO)[C@@H](O)[C@H](O)[C@H]2O[C@H]2C[C@](C)(N)[C@H](O)[C@H](C)O2)Oc2ccc(cc2Cl)[C@H]1O [VANCOMYCIN]
MIC: < 0.125 µg/mL
